Tested on: zebrafish embryos
Test: Developmental (phenotypic) zebrafish bioassay
Type: in vivo, Danio rerio
Conditions: zebrafish embryos, compound added 4 h, end 24 h post fertilization
Consider the following molecules; for each one, report its MTC (Maximum Tolerated Concentration).
Give bare numbers, in µM.

Here is how some molecules turned out for MTC (Maximum Tolerated Concentration).
Nc1nccc(-c2c[nH]c3cccc(O)c23)n1 [Meridianin A]	100
Nc1nccc(-c2c[nH]c3cc(Br)c(Br)cc23)n1 [Meridianin F]	10
Nc1nccc(-c2c[nH]c3c(Br)ccc(O)c23)n1 [Meridianin E]	100
Nc1nccc(-c2c[nH]c3cc(Br)ccc23)n1 [Meridianin D]	100
Nc1nccc(-c2c[nH]c3ccc(Br)cc23)n1 [Meridianin C]	10
Nc1nccc(-c2c[nH]c3ccccc23)n1 [Meridianin G]	300
Nc1nccc(-c2c[nH]c3cc(Br)cc(O)c23)n1 [Meridianin B]	300
Nc1nccc(C2(O)C(=O)Nc3ccccc32)n1 (stereo not drawn) [Australindolone A]	1000

Switching to the query record.
Form: item Nc1nccc(-c2c[nH]c3c(Br)cc(Br)c(O)c23)n1 [Meridianin H] ; test system zebrafish embryos; MTC (Maximum Tolerated Concentration): 100
